Cited source for all entries: paper PMC10322702

For each of the molecules below, state its log10 IC50.
Numbered stars: 1 amine (or outer) side, 2 acyl side, 3 side chain; on linkers, the order of the positions; unused ones are H or OH. Bridge positions count the residues as written; N and C are the ends. Square brackets hold non-standard residues; d marks the D form. Peptide text beside a SMILES is read from it. Acbc(cis-1,3) = O=C([C@H]1C[C@@H](N[*:1])C1)[*:2]; X1 = O=C([C@@H]1CC[C@H](N[*:1])C1)[*:2]
Recorded IC50 (log10, nM)

Request body: readout log10 IC50, system SARS-CoV-2 M^pro (Severe acute respiratory syndrome coronavirus 2), query CC[C@H](C)[C@@H]1NC(=O)[C@H](Cc2ccc(O)cc2)NC(=O)[C@H](CC(C)C)NC(=O)[C@H](CC(=O)O)NC(=O)[C@H](CCCNC(=N)N)NC(=O)[C@H](Cc2ccccc2)NC(=O)[C@@H]2CC[C@@H](C2)NC(=O)[C@H](Cc2c[nH]cn2)NC(=O)[C@H](Cc2ccccc2)NC(=O)[C@@H](Cc2ccc(O)cc2)NC(=O)CSC[C@H](C(N)=O)NC(=O)CNC(=O)[C@H](CC(C)C)NC1=O [GM5] ({CH2CO}-[dY]FH[X1]FRDLYILG[dC]-NH2; thioether N-13) . Return the value. 1.60

Request body: readout log10 IC50, system SARS-CoV-2 M^pro (Severe acute respiratory syndrome coronavirus 2), query CC(C)C[C@@H]1NC(=O)[C@@H](Cc2ccc(O)cc2)NC(=O)CSC[C@H](C(N)=O)NC(=O)[C@H](C)NC(=O)[C@H](C)NC(=O)[C@H](Cc2ccc(O)cc2)NC(=O)[C@H](CCCNC(=N)N)NC(=O)[C@H](Cc2ccc(O)cc2)NC(=O)[C@H](C)NC(=O)[C@H](CO)NC(=O)[C@H](Cc2ccc(O)cc2)NC(=O)[C@H]([C@@H](C)O)NC(=O)[C@H](CO)NC(=O)[C@H](C)NC(=O)[C@H](Cc2ccc(O)cc2)NC(=O)[C@H](Cc2c[nH]cn2)NC1=O [GM3γ^210A] ({CH2CO}-[dY]LHYASTYSAYRYAA[dC]-NH2; thioether N-16) . Return the value. 2.08

Request body: readout log10 IC50, system SARS-CoV-2 M^pro (Severe acute respiratory syndrome coronavirus 2), query CC(C)C[C@@H]1NC(=O)[C@H](CC(N)=O)NC(=O)[C@H](CC(C)C)NC(=O)[C@H]2C[C@H](C2)NC(=O)[C@H](Cc2c[nH]cn2)NC(=O)[C@H](Cc2ccccc2)NC(=O)[C@@H](Cc2ccc(O)cc2)NC(=O)CSC[C@H](C(N)=O)NC(=O)CNC(=O)[C@@H]2CCCN2C(=O)[C@H](CCCNC(=N)N)NC(=O)[C@H](Cc2ccc(O)cc2)NC(=O)CNC1=O [GM4] ({CH2CO}-[dY]FH[Acbc(cis-1,3)]LNLGYRPG[dC]-NH2; thioether N-13) . Return the value. 1.70

Request body: readout log10 IC50, system SARS-CoV-2 M^pro (Severe acute respiratory syndrome coronavirus 2), query CC(C)C[C@@H]1NC(=O)[C@H](C)NC(=O)[C@H](Cc2c[nH]cn2)NC(=O)[C@H](Cc2ccccc2)NC(=O)[C@@H](Cc2ccc(O)cc2)NC(=O)CSC[C@H](C(N)=O)NC(=O)CNC(=O)[C@@H]2CCCN2C(=O)[C@H](CCCNC(=N)N)NC(=O)[C@H](Cc2ccc(O)cc2)NC(=O)CNC(=O)[C@H](CC(C)C)NC(=O)[C@H](CC(N)=O)NC1=O [GM4γ^14A] ({CH2CO}-[dY]FHALNLGYRPG[dC]-NH2; thioether N-13) . Return the value. 1.00

Request body: readout log10 IC50, system SARS-CoV-2 M^pro (Severe acute respiratory syndrome coronavirus 2), query CC(C)C[C@@H]1NC(=O)[C@H]([C@@H](C)O)NC(=O)[C@H](Cc2ccc(O)cc2)NC(=O)[C@H]([C@@H](C)O)NC(=O)[C@H](Cc2c[nH]cn2)NC(=O)[C@@H]2CCCN2C(=O)[C@@H]2CCCN2C(=O)[C@H](Cc2ccccc2)NC(=O)[C@H]2C[C@H](C2)NC(=O)[C@H](Cc2c[nH]cn2)NC(=O)[C@H](Cc2ccccc2)NC(=O)[C@@H](Cc2ccc(O)cc2)NC(=O)CSC[C@H](C(N)=O)NC1=O [GM1] ({CH2CO}-[dY]FH[Acbc(cis-1,3)]FPPHTYTL[dC]-NH2; thioether N-13) . Return the value. 1.60

Request body: readout log10 IC50, system SARS-CoV-2 M^pro (Severe acute respiratory syndrome coronavirus 2), query CC[C@H](C)[C@@H]1NC(=O)[C@H](CO)NC(=O)[C@H](Cc2ccccc2)NC(=O)[C@H]2C[C@H](C2)NC(=O)[C@H](Cc2c[nH]cn2)NC(=O)[C@H](Cc2ccccc2)NC(=O)[C@@H](Cc2ccc(O)cc2)NC(=O)CSC[C@H](C(N)=O)NC(=O)[C@H](CC(C)C)NC(=O)[C@H](CCCNC(=N)N)NC(=O)[C@H](Cc2ccc(O)cc2)NC(=O)[C@H](CCCNC(=N)N)NC(=O)[C@H](Cc2ccccc2)NC1=O [GM2] ({CH2CO}-[dY]FH[Acbc(cis-1,3)]FSIFRYRL[dC]-NH2; thioether N-13) . Return the value. 3.24

====

For each of the molecules below, state its half-life at 10 μM.
experiment: Serum stability assay in human serum (LC/MS); details: human
Numbered stars: 1 amine (or outer) side, 2 acyl side, 3 side chain; on linkers, the order of the positions; unused ones are H or OH. Bridge positions count the residues as written; N and C are the ends. Square brackets hold non-standard residues; d marks the D form. Peptide text beside a SMILES is read from it. Acbc(cis-1,3) = O=C([C@H]1C[C@@H](N[*:1])C1)[*:2]

Consider the molecule CC[C@H](C)[C@@H]1NC(=O)[C@H](CO)NC(=O)[C@H](Cc2ccccc2)NC(=O)[C@H]2C[C@H](C2)NC(=O)[C@H](Cc2c[nH]cn2)NC(=O)[C@H](Cc2ccccc2)NC(=O)[C@@H](Cc2ccc(O)cc2)NC(=O)CSC[C@H](C(N)=O)NC(=O)[C@H](CC(C)C)NC(=O)[C@H](CCCNC(=N)N)NC(=O)[C@H](Cc2ccc(O)cc2)NC(=O)[C@H](CCCNC(=N)N)NC(=O)[C@H](Cc2ccccc2)NC1=O [GM2] ({CH2CO}-[dY]FH[Acbc(cis-1,3)]FSIFRYRL[dC]-NH2; thioether N-13) and give its measured half-life at 10 μM. 1.1 h

Consider the molecule CC(C)C[C@@H]1NC(=O)[C@H]([C@@H](C)O)NC(=O)[C@H](Cc2ccc(O)cc2)NC(=O)[C@H]([C@@H](C)O)NC(=O)[C@H](Cc2c[nH]cn2)NC(=O)[C@@H]2CCCN2C(=O)[C@@H]2CCCN2C(=O)[C@H](Cc2ccccc2)NC(=O)[C@H](C)NC(=O)[C@H](Cc2c[nH]cn2)NC(=O)[C@H](Cc2ccccc2)NC(=O)[C@@H](Cc2ccc(O)cc2)NC(=O)CSC[C@H](C(N)=O)NC1=O [GM1γ^14A] ({CH2CO}-[dY]FHAFPPHTYTL[dC]-NH2; thioether N-13) and give its measured half-life at 10 μM. 8.3 h

Consider the molecule CC(C)C[C@@H]1NC(=O)[C@H](C)NC(=O)[C@H](Cc2c[nH]cn2)NC(=O)[C@H](Cc2ccccc2)NC(=O)[C@@H](Cc2ccc(O)cc2)NC(=O)CSC[C@H](C(N)=O)NC(=O)CNC(=O)[C@@H]2CCCN2C(=O)[C@H](CCCNC(=N)N)NC(=O)[C@H](Cc2ccc(O)cc2)NC(=O)CNC(=O)[C@H](CC(C)C)NC(=O)[C@H](CC(N)=O)NC1=O [GM4γ^14A] ({CH2CO}-[dY]FHALNLGYRPG[dC]-NH2; thioether N-13) and give its measured half-life at 10 μM. 11 h

Consider the molecule CC(C)C[C@@H]1NC(=O)[C@H](CC(N)=O)NC(=O)[C@H](CC(C)C)NC(=O)[C@H]2C[C@H](C2)NC(=O)[C@H](CCC(N)=O)NC(=O)[C@H](Cc2ccccc2)NC(=O)[C@@H](Cc2ccc(O)cc2)NC(=O)CSC[C@H](C(N)=O)NC(=O)CNC(=O)[C@@H]2CCCN2C(=O)[C@H](CCCNC(=N)N)NC(=O)[C@H](Cc2ccc(O)cc2)NC(=O)CNC1=O [GM4H3Q] ({CH2CO}-[dY]FQ[Acbc(cis-1,3)]LNLGYRPG[dC]-NH2; thioether N-13) and give its measured half-life at 10 μM. 82 h

Consider the molecule CC[C@H](C)[C@@H]1NC(=O)[C@H](Cc2ccc(O)cc2)NC(=O)[C@H](CC(C)C)NC(=O)[C@H](CC(=O)O)NC(=O)[C@H](CCCNC(=N)N)NC(=O)[C@H](Cc2ccccc2)NC(=O)[C@H](C)NC(=O)[C@H](Cc2c[nH]cn2)NC(=O)[C@H](Cc2ccccc2)NC(=O)[C@@H](Cc2ccc(O)cc2)NC(=O)CSC[C@H](C(N)=O)NC(=O)CNC(=O)[C@H](CC(C)C)NC1=O [GM5γ^24A] ({CH2CO}-[dY]FHAFRDLYILG[dC]-NH2; thioether N-13) and give its measured half-life at 10 μM. 21 h
